Sourced from patent US20210277109A1

targetDesc: T1, human ROR1 'Ig-Frizzled domain' (human, UniProt Q01973)
T1 construct: used plain or biotinylated
T1 sequence (Q01973 30-305 limits assumed): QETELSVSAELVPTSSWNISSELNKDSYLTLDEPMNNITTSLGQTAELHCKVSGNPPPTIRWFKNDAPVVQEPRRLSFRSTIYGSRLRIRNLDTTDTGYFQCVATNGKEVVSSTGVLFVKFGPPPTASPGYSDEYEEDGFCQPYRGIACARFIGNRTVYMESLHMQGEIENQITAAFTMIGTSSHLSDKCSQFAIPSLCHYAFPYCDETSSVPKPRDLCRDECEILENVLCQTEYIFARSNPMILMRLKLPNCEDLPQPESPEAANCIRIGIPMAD
test: ELISA, biotinylated antigen on avidin plate; BCC supernatant
readoutName: ELISA OD450 (OD450)
# value in OD450; strip the unit string

Below, each entry is followed by its recorded ELISA OD450 result.
[
  {
    "binder": "338H4 (antibody, V domains shown, chimeric counterpart m8; also called rabbit IgG of BCC well 338H4) VH: QSVEESGGRLVTPGTPLTLTCTVSGFSLSSYAMSWVRQAPGRGLEWIGIIYASGSTYYASWAKGRFTISKTSTTVDLKITSPTTEDTATYFCARIYDGMDLWGPGTLVTVSS VL: DIVMTQTPASVSAAVGGTVTINCQASQNIYSYLSWYQQKPGQPPKRLIYLASTLASGVPSRFKSSGSGTEYTLTISDLECDDAATYYCQSNYNGNYGFGGGTEVEVK",
    "readoutName": "ELISA OD450",
    "recordedValue": 0.22
  },
  {
    "binder": "323H7 (antibody, V domains shown, chimeric counterpart m3; also called rabbit IgG of BCC well 323H7) VH: QEQLKESGGGLVTPGGTLTLTCTASGFTISRYHMTWVRQAPGKGLEWIGHIYVNNDDTDYASWAKGRFTISKTSTTVDLKITSPTTEDTATYFCARLDVGGGGAYIGDIWGQGTLVTVSS VL: QAVVTQTPSSVSAAVGGTVTISCQSSQSVYNNNDLAWYQQKPGQPPKLLIYYASTLASGVSSRFKGSGSGTQFTLAISDLECDDSATYYCAGGYDTDGLDTFAFGGGTEVEVK",
    "readoutName": "ELISA OD450",
    "recordedValue": 1.78
  }
]

Next up:
// field: ELISA OD450; key: 324E2 (antibody, V domains shown, chimeric counterpart m6; also called rabbit IgG of BCC well 324E2) VH: QSVEESGGRLVTPGTPLTLTCTVSGFSLSNNAITWVRQAPGKGLEYIGIISSSGTTYYASWAKGRFTISKTSSTTVDLKMTSLTTEDTATYFCAGAFSVWGPGTLVTVSS VL: AQVLTQTPSSVSAAVGGTVTINCQSSQSVNNNDLAWFQQKPGQPPKRLIYWASKLASGVPSRFKGSGSGTQFILTISDLECDDAATYYCAGGYSGNIYGFGGGTEVEVK ; value = 0.62
